- SYSTEM UNDER TEST: T1, human LIGHT (TNFSF14), full length, membrane-bound (214E allele) (human, UniProt O43557 1-240)
- T1 construct: also called membrane LIGHT; human membrane LIGHT
- T1 sequence (O43557 whole entry K214E): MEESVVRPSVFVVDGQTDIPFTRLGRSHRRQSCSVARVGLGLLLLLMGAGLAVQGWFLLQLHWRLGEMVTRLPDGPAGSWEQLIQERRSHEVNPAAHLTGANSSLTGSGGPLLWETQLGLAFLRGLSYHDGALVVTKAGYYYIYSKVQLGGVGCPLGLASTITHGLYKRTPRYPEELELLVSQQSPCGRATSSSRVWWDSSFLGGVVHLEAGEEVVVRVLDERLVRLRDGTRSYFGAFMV
- PROCEDURE SUMMARY: flow cytometry, EL4-LIGHT cells
- Procedure: The EC50 of the 7 mAbs were calculated from binding to EL4-LIGHT cells (Table 7) which represents a more accurate comparison of the EC50's than utilising transiently transfected LIGHT cells. […] Non-linear regression analysis was performed to determine the functional binding affinity measurement or EC50 for each mAb. A range of functional affinities was observed.
Measured EC50, listed per entry.
OUTCOME MEASURE: EC50 (pM)

INSERT INTO measurements (binder, reported) VALUES
  ('2B11 (antibody, human IgG4, V domains shown, chimeric human IgG4 (S-to-P, L-to-E at 248), human CL; also called Parental 2B11) VH: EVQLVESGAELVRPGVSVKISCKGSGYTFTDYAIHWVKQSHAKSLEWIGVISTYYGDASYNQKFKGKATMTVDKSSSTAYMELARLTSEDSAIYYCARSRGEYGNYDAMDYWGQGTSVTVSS VL: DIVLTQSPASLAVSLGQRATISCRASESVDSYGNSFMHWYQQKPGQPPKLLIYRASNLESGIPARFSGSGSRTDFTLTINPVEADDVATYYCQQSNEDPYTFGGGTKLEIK', 300),
  ('3E09 (antibody, V domains shown, chimeric human IgG4 (S-to-P, L-to-E at 248), human CL; also called Parental 3E09) VH: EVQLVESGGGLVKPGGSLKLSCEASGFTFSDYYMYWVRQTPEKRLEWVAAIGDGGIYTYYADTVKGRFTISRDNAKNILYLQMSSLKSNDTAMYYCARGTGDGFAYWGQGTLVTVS VL: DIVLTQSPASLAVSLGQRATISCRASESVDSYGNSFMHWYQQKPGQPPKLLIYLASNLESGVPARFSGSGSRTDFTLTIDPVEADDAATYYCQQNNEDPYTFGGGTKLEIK', 8100),
  ('3D12 (antibody, human IgG4, V domains shown, chimeric: mouse variable domains on human IgG4 HC (S-to-P and L-to-E at 248) and human CL; also called Parental 3D12; 3D12 chimeric) VH: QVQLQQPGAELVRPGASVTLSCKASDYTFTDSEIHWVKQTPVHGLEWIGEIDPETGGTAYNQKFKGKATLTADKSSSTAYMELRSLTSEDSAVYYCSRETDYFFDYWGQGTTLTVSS VL: DIQMTQSPASLSASVGETVTITCGASENIYGALNWYQRKQGKSPQLLIYGATNLADGMSSRFSGSGSGRQYSLKISSLHPDDVATYYCQNVLSTPWTFGGGTKLEIKR', 200);
